# fold difference in affinity vs original per entry
target: binding partner of C5A (XPA23)
protocol: Biacore, K-off
Expressed in fold, but write only the number.

Study these solved cases before continuing.
binder	unitSymbol	fold difference in affinity vs original
C5A (XPA23) VH P53Y (antibody, V domains shown) VH: EVQLLESGGGLVQPGGSLRLSCAASGFTFSKYFMFWVRQAPGKGLEWVSVISYSGGMTRYADSVKGRFTISRDNSKNTLYLQMNSLRAEDTAVYYCARVGYGGNSDYWGQGTLVTVSS VL: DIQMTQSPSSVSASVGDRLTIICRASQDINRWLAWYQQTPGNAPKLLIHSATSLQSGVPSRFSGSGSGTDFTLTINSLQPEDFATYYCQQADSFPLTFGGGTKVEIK	fold	0.03
C5A (XPA23) VH M57K (antibody, V domains shown) VH: EVQLLESGGGLVQPGGSLRLSCAASGFTFSKYFMFWVRQAPGKGLEWVSVISPSGGKTRYADSVKGRFTISRDNSKNTLYLQMNSLRAEDTAVYYCARVGYGGNSDYWGQGTLVTVSS VL: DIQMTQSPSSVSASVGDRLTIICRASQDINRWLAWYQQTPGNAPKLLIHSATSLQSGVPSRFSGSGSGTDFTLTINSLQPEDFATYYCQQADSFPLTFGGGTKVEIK	fold	0.04

# next binder below
Please look at this binder and report its fold difference in affinity vs original: C5A (XPA23) VH D106Q (antibody, V domains shown) VH: EVQLLESGGGLVQPGGSLRLSCAASGFTFSKYFMFWVRQAPGKGLEWVSVISPSGGMTRYADSVKGRFTISRDNSKNTLYLQMNSLRAEDTAVYYCARVGYGGNSQYWGQGTLVTVSS VL: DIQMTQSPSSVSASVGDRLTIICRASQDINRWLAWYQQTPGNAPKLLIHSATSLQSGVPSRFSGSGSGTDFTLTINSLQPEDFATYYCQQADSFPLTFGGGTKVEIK 0.02
